target.entity: T1, human activated Protein C (human, UniProt P04070 43-461)
T1 construct: also called human aPC; hAPC
protocol.summary: Biacore, Fab
Would you mind telling me the reported pKd of each entry?
Answers are plain numbers, as −log10 of the molar value.

C7I7 Fab (Fab, V domains shown, Human Fab (lambda) from a phage library, expressed in E. coli; also called C717) VH: EVQLLESGGGLVQPGGSLRLSCAASGFTFGNHWMTWVRQAPGKGLEWVSGVSWNGSRTHYADSVKGRFTISRDNSKNTLYLQMNSLRAEDTAVYYCALTGRSGWMRFPNWFDPWGQGTLVTVTS VL: QSVLTQPPSASGTPGQRVTISCTGSSSNIGAGYDVHWYQQLPGTAPKLLIYGNSNRPSGVPDRFSGSKSGTSASLAISGLRSEDEAAYYCSSYVGSDLVVFGGGTKLTVLG	8.89

// moving on: another record for pKd
# input Give its pKd value. Item: T46J23 Fab (Fab, V domains shown, Human Fab (lambda), expressed in E. coli) VH: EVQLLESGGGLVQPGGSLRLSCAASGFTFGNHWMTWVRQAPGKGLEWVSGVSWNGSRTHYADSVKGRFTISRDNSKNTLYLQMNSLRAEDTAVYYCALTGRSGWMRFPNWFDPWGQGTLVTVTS VL: LTQPPSASGTPGQRVTISCTGTSSNIGAGYDVHWYQQLPGTAPKLLIYDNNNRPSGVPDRFSGSKSGTSASLAISGLRSEDEADYYCAAWDDSLNGVVFGGGTKLTVLG
# output 8.39

Data credit: patent US20150307625A1
